# Target Desc: EGFR(L861Q)(h) (Homo sapiens, UniProt P00533, L861Q)
# Experimental Protocol: Kinase Profiling Assay
# Type: biochemical
# Measurement Parameters: peptide 100 μM
# Description: Every kinase activity measurement was conducted in duplicate. Specifically, in these assays, a positively charged substrate is phosphorylated with a radiolabeled phosphate group from an ATP if the kinase is not inhibited by an inhibitor peptide. The positively charged substrate then is attracted to a negatively charged filter membrane, quantified with a scintillation counter, and compared to a 100% activity control. […]
No end group written: not given here.
Measured Attribute: % activity

- Sequence: "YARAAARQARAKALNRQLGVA (Mammal) [MMI-0200]"
  Measured Attribute: "% activity"
  Result: "74%"
- Sequence: "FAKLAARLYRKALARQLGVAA [MMI-0300]"
  Measured Attribute: "% activity"
  Result: "25%"
- Sequence: "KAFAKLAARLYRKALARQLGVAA [MMI-0400]"
  Measured Attribute: "% activity"
  Result: "22%"
- Sequence: "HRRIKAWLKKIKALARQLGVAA (Mammal) [MMI-0500]"
  Measured Attribute: "% activity"
  Result: "15%"
- Sequence: "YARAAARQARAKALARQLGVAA [MMI-0100]"
  Measured Attribute: "% activity"
  Result: "53%"

---

# Target Desc: CSK(h) (Homo sapiens, UniProt P41240)
# Sequence (P41240 whole entry): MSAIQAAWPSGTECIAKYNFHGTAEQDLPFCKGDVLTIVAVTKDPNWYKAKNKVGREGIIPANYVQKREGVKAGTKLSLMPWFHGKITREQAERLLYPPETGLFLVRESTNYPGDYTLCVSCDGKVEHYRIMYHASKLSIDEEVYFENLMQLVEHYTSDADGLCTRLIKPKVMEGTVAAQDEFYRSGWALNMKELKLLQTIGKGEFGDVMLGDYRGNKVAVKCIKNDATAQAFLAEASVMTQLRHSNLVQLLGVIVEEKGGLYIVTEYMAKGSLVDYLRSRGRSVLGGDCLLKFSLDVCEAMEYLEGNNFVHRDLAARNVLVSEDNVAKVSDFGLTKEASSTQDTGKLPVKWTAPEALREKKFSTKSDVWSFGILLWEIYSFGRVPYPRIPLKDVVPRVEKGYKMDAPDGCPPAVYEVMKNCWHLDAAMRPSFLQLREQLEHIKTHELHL
# Experimental Protocol: Kinase Profiling Assay
# Assay type: biochemical
# Measurement Parameters: peptide 100 μM
Catalogue of % activity values

- Sequence: "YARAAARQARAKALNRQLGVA (Mammal) [MMI-0200]"
  % activity / %: 33
- Sequence: "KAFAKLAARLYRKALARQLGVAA [MMI-0400]"
  % activity / %: 16
- Sequence: "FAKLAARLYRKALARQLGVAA [MMI-0300]"
  % activity / %: 49
- Sequence: "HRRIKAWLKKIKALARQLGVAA (Mammal) [MMI-0500]"
  % activity / %: 2

---

# Target Desc: Mer(h) (Homo sapiens)
# Construct: purchased Millipore
# Sequence (Q12866 21-999): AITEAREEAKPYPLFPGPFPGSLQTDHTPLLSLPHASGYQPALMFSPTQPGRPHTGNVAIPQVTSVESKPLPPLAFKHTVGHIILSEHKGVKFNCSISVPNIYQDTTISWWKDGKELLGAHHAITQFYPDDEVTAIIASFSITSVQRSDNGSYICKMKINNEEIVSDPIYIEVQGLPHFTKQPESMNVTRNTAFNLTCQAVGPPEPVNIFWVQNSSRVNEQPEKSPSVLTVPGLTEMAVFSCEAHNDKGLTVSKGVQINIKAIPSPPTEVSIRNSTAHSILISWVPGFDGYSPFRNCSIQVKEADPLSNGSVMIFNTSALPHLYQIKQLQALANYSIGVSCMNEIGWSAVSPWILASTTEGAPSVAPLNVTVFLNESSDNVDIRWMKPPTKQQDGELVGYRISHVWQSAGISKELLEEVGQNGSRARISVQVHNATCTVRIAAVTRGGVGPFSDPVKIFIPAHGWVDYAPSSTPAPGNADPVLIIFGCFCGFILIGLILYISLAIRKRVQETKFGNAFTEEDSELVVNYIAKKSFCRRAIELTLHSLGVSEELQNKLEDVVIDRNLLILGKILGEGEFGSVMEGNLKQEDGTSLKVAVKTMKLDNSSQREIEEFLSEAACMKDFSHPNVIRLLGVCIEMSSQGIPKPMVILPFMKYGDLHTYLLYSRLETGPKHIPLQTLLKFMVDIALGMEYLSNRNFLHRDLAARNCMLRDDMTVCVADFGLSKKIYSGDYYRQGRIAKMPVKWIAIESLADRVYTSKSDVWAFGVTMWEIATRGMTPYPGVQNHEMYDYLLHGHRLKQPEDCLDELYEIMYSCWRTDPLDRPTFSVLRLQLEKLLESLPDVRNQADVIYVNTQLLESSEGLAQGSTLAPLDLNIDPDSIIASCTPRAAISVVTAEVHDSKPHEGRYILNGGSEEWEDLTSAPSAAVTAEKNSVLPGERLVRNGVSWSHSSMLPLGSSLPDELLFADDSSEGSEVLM
# Experimental Protocol: Kinase Profiling Assay
# Assay type: biochemical
# Measurement Parameters: peptide 100 μM
No end group written: not given here.
// boundary case: % activity equal to 50% maps to -1; strictly smaller maps to 1

- Sequence: "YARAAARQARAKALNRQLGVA (Mammal) [MMI-0200]"
  Class Name: -1
- Sequence: "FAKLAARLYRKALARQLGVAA [MMI-0300]"
  Class Name: -1
- Sequence: "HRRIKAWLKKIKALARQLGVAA (Mammal) [MMI-0500]"
  Class Name: 1
- Sequence: "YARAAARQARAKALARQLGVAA [MMI-0100]"
  Class Name: 1

---

# Target Desc: PKD2(h) (Homo sapiens, UniProt Q9BZL6)
# Sequence (Q9BZL6 1-878): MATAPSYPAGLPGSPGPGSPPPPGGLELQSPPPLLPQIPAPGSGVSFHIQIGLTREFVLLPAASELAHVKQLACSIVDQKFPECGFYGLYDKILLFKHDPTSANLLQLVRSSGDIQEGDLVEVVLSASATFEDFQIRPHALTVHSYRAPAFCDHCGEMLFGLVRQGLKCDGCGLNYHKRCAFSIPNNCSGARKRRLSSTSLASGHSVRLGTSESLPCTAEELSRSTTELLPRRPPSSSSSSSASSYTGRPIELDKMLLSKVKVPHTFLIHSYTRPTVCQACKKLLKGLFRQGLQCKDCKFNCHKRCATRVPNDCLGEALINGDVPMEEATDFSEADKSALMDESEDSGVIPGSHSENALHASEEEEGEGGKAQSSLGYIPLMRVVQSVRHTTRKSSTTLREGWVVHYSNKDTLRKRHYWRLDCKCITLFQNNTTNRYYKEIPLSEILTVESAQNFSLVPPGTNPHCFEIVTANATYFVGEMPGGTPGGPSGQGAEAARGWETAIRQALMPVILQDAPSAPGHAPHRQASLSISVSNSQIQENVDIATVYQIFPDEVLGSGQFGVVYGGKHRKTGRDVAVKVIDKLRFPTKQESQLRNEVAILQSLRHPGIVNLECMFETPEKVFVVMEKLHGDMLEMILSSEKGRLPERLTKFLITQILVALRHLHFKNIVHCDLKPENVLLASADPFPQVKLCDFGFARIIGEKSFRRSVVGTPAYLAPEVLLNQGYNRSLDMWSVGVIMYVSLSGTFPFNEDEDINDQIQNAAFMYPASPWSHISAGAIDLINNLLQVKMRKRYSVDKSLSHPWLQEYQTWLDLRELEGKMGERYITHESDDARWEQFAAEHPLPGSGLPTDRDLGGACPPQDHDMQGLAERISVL
# Experimental Protocol: Kinase Profiling Assay
# Format: biochemical
# Measurement Parameters: peptide 100 μM
No end group written: not given here.
// boundary case: % activity equal to 30% maps to class 0; strictly smaller maps to class 1

- Sequence: "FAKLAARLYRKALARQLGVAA [MMI-0300]"
  Class Name: "class 0"
- Sequence: "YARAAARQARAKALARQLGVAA [MMI-0100]"
  Class Name: "class 0"
- Sequence: "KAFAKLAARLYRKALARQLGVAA [MMI-0400]"
  Class Name: "class 1"
- Sequence: "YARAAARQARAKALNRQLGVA (Mammal) [MMI-0200]"
  Class Name: "class 0"
- Sequence: "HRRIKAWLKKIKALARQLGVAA (Mammal) [MMI-0500]"
  Class Name: "class 1"

---

# Target Desc: EphA4(h) (Homo sapiens, UniProt P54764)
# Sequence (P54764 20-986): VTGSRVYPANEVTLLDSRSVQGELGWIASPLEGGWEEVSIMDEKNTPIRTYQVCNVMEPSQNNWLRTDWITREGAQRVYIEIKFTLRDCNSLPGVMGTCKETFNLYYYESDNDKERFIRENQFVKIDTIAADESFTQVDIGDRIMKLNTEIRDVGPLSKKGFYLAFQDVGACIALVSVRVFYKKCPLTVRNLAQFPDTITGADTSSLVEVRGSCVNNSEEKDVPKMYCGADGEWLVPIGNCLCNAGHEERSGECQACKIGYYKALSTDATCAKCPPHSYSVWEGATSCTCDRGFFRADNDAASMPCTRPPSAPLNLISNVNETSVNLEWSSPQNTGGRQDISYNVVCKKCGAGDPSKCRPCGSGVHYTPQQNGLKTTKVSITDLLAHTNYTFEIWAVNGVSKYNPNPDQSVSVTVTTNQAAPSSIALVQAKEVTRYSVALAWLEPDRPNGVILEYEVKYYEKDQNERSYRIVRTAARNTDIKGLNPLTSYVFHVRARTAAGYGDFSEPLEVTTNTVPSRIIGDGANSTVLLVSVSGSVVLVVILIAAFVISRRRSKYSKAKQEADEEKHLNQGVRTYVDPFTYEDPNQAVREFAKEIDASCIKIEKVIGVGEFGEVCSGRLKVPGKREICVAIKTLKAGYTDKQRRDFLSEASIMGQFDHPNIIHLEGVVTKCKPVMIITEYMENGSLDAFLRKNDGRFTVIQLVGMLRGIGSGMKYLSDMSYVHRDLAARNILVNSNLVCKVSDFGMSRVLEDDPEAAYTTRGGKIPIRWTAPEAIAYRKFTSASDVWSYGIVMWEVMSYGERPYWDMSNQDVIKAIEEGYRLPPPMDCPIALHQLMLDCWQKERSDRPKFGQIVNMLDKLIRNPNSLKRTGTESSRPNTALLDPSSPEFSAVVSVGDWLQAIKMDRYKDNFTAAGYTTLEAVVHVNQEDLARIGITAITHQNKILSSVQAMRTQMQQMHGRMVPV
# Experimental Protocol: Kinase Profiling Assay
# Format: biochemical
# Measurement Parameters: peptide 100 μM
No end group written: not given here.
// boundary case: % activity equal to 90% maps to rule not met; strictly smaller maps to rule met

- Sequence: "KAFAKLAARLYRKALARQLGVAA [MMI-0400]"
  Target Desc: "EphA4(h) (Homo sapiens, UniProt P54764)"
  Class Name: "rule met"
- Sequence: "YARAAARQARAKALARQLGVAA [MMI-0100]"
  Target Desc: "EphA4(h) (Homo sapiens, UniProt P54764)"
  Class Name: "rule not met"
- Sequence: "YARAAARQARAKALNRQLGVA (Mammal) [MMI-0200]"
  Target Desc: "EphA4(h) (Homo sapiens, UniProt P54764)"
  Class Name: "rule not met"
- Sequence: "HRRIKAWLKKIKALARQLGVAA (Mammal) [MMI-0500]"
  Target Desc: "EphA4(h) (Homo sapiens, UniProt P54764)"
  Class Name: "rule met"

---

# Target Desc: PRAK(h) (Homo sapiens, UniProt Q8IW41)
# Sequence (Q8IW41 1-473): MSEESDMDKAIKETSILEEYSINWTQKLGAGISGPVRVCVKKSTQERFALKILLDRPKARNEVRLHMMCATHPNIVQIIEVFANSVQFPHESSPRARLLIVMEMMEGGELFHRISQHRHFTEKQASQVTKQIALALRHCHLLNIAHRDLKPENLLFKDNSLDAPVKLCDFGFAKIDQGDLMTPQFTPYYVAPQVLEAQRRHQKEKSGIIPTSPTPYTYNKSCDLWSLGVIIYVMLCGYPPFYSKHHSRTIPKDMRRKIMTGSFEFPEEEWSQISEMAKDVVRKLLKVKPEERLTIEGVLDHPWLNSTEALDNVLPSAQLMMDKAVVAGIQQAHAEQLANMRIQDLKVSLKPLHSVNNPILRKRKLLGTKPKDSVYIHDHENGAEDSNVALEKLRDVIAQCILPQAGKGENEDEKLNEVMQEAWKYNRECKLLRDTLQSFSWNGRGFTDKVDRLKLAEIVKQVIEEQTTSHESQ
# Experimental Protocol: Kinase Profiling Assay
# Type: biochemical
# Measurement Parameters: peptide 100 μM
No end group written: not given here.
Catalogue of % activity values

- Sequence: "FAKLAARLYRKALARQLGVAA [MMI-0300]"
  % activity, %: 128
- Sequence: "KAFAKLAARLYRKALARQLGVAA [MMI-0400]"
  % activity, %: 118
- Sequence: "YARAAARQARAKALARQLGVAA [MMI-0100]"
  % activity, %: 159
- Sequence: "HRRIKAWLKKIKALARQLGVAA (Mammal) [MMI-0500]"
  % activity, %: 95
